Listed here: items and their measured yeast fitness.
B1: tRNA (parent)
chain: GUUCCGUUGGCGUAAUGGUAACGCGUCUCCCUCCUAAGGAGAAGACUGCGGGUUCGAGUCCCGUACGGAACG

Variants of: B1
Test: yeast fitness relative to wild type (ratio to wild type); higher = fitter; tRNA-Arg(CCU), competitive growth, 37 C, YPD
Variants at the floor of the assay were thinned out.
Lab note: jot the number down without any unit.

Examples with their reported yeast fitness follow.
G9A A65G G68C | 0.594
C5G U7G C33A A70U | 0.57
C27G U32C C62U | 0.62
C4U C30A A45G C55G A65G | 0.636

The record that follows has no yeast fitness shown yet.
### Prompt Please look at this variant and report its yeast fitness: G17A G58A
### Response 0.794
